System: SNB-75 CNS
Assay: NCI tumour cell line growth inhibition, 48 h
property-measured: log10(TGI) (log10 of the value in µM)
Note the log scale: values are log10 of TGI expressed in µM.

Measured log10(TGI) for this entry CCN(C(=O)N[C@H](C(=O)N[C@@H](CSC)C(=O)N[C@@H](C)C(=O)OC)C(C)C)c1ccccc1 on SNB-75 CNS: 1.44

Measured on SNB-75 CNS, Cc1cc(N(CCNc2ccnc3cc(Cl)ccc23)Cc2ccc3c(c2)OCO3)nc(N2CCCC2)n1 has a documented log10(TGI) of 0.48

GET /values?item= C=C(C)C(=O)Nc1ccc(-c2c(-c3ccc(Oc4nccc(C)n4)c(F)c3)c3c(N)ncnc3n2C)cc1 &system= SNB-75 CNS returns log10(TGI): 0.86

So the reported log10(TGI) for CCCCCCCCN=C(NCCCCCCCC)SCc1cccc2ccccc12 , on SNB-75 CNS, turned out to be 0.50

CN(C)c1ccc2[nH]c3c(C(N)=O)cc(=O)c(=O)c=3oc2c1 tested on SNB-75 CNS gave log10(TGI): 0.96

Query COc1cccc(CCNc2c(C#N)c3n(c4ccccc4[n+]3C)c3ncccc23)c1 on SNB-75 CNS; log10(TGI) returned: 1.11

Note to self: log10(TGI) of O=c1c2c3c(sc2nc2n1NC=NN2)CCCC3 with SNB-75 CNS was 1.77

Record NC(=S)N1N=C2c3ccccc3CCC[C@H]2[C@@H]1c1ccccc1 / SNB-75 CNS, log10(TGI) recorded as -0.05

Noted log10(TGI) for Fc1ccc(Nc2nc(Nc3ccc(-c4nc5ccccc5[nH]4)cc3)c3cn[nH]c3n2)cc1 , tested on SNB-75 CNS: 0.55

Assay SNB-75 CNS, sample FC(F)(F)c1cccc(-c2[nH]ncc2-c2nnnn2-c2ccccc2)c1 , log10(TGI) read: 1.30

Test item CCC(c1ccccc1)c1cc(C(C)(C)C)cc(C(C)(C)C)c1O (stereo not given) ; SNB-75 CNS; reported log10(TGI) was 1.43

Measured log10(TGI) (SNB-75 CNS), entry N#CC1=C(N)N(/N=C/c2ccco2)C(c2ccco2)C1(C#N)C#N (stereo not given) : 1.56

Given the compound COc1cc(-c2ccc[nH]2)[nH]c1/C=C1\N=C(C)C(CC(=O)OCC(C)(C)C)=C1C and test system SNB-75 CNS, the measured log10(TGI) is -0.04

Hey, SNB-75 CNS data for CC12O[C@H](C[C@@H](OC(=O)CCC(=O)O)[C@H]1O)n1c3ccccc3c3c4c(c5c6ccccc6n2c5c31)C(=O)NC4=O : log10(TGI) came out at 0.87
